// provenance: paper PMC8198038

- Tested on: HepG2 (hepatocellular cancer) cells
- measurement-description: CV (crystal violet) assay, HepG2 cells
- Type: cell-based, human
- measurement-context: CV assay, 48 h incubation; read-out: IC50 (mean ± SD), HepG2, CV
I'd be grateful if you could share measured IC50 for these entries.
Could you give me the number in nM? Just the number is fine.

I would be grateful if you could share the reported IC50 for O=C(CCN1C(=O)NC(c2ccccc2)(c2ccccc2)C1=O)[O][Sn]([c]1ccccc1)([c]1ccccc1)[c]1ccccc1 [Ph3SnL3] . 255

I would be grateful if you could share the reported IC50 for O=C(CCc1nc(-c2ccccc2)c(-c2ccccc2)o1)[O][Sn]([c]1ccccc1)([c]1ccccc1)[c]1ccccc1 [Ph3SnL1] . 366

I would be grateful if you could share the reported IC50 for N.N.[Cl][Pt][Cl] [cisplatin, reference compound] . 3650

* * *

- Test system: NIH3T3 (normal mouse embryonic fibroblast) cells
- measurement-description: CV (crystal violet) assay, NIH3T3 cells
- Assay type: cell-based
- measurement-context: CV assay, 48 h incubation, normal cells; read-out: IC50 (mean ± SD), NIH3T3, CV
measurement-name: IC50 (nM)
Could you give me the number in nM? Just the number is fine.

I would be grateful if you could share the reported IC50 for "O=C(CCc1nc(-c2ccccc2)c(-c2ccccc2)o1)[O][Sn]([c]1ccccc1)([c]1ccccc1)[c]1ccccc1" . 2660

I would be grateful if you could share the reported IC50 for N.N.[Cl][Pt][Cl] [cisplatin, reference compound] . 14200

I would be grateful if you could share the reported IC50 for "O=C(CCN1C(=O)NC(c2ccccc2)(c2ccccc2)C1=O)[O][Sn]([c]1ccccc1)([c]1ccccc1)[c]1ccccc1" . 2090

* * *

- Test system: PC-3 (human prostate cancer) cells
- measurement-description: CV (crystal violet) assay, PC-3 cells
- Format: cell-based
- measurement-context: Homo sapiens, PC-3, 48 h, read-out: IC50 (mean ± SD), PC-3, CV
- Experimental: The cell proliferations of ligand precursors and organotin(IV) compounds were evaluated with the aid of MTT (3-(4,5-dimethylthiazol-2-yl)-2,5-12 diphenyltetrazolium bromide) and CV (crystal violet) assays toward prostate (PC-3), colon (HT-29), breast (MCF-7) and hepatic (HepG2) cancer cell lines, and normal mouse embryonic fibroblast cells (NIH 3T3). The cells were cultivated in T75 flasks containing 10 mL of complete medium and kept at 37 °C and 5% CO2 with the aim of detaching the cells. […]
measurement-name: IC50

I would be grateful if you could share the reported IC50 for O=C(O)CCc1nc(-c2ccccc2)c(-c2ccccc2)o1 [HL1, reference compound] . > 100 µM
